Sourced from ChEMBL document CHEMBL5058577

test system: Fibroblast; assay: Multiplex assay against human fibroblast; format: toxicity, cell-based; conditions: 24 h, 10 µM, compound concentration 10 uM, replicate 2
Measurement Label: Population Pyknosed Nuclei (%)
Quick note: give the figure in %, leave out the unit.

In [3]: df
Out[3]:
                            molecule_smiles               measurement_label  units_symbol  reported_value
0       O=C(CCCc1ccccc1)Nc1nc2ccccc2c(=O)s1  Population Pyknosed Nuclei (%)             %              25
1  C[C@H](N)COC(=O)[C@@H](CCCCN)NC(=O)Cc1c(-c2ccc3ccccc3c2)[nH]c2c1ccc1ccccc12  Population Pyknosed Nuclei (%)             %              13
2    N#Cc1cc(F)cc(-c2nc(-c3ccc(F)cn3)no2)c1  Population Pyknosed Nuclei (%)             %              18

As a next step, examine the compound that follows.
Bench note, Fibroblast: entry "COc1cccc2c1c(NS(=O)(=O)c1ccc(Cl)s1)nn2Cc1cccc(CNC(=O)C(C)(C)O)c1" , its Population Pyknosed Nuclei (%) = 22
